Target: Autotaxin (Homo sapiens, UniProt Q13822)
Test: Competitive inhibition of C-terminal FLAG-tagged human recombinant autotaxin using synthetic substrate FS-3 by Michaelis-Menten equation analysis
PROPERTY LABEL: log10 Ki (log10 of the value in nM)
Quick note: numbers are log10 of Ki, with nM as the unit.

query: GET /values?readout=log10 Ki&item= CC1CCC(C(C)C)C(OCC(=O)N2CCC(CCCC3CCN(c4ccc(C(=O)N5CCCC5C(N)=O)cc4)CC3)CC2)C1 (stereo not drawn)
result: 2.00

query: Item: CC(C)c1ccc(OCC(=O)N2CCN(c3ccc(C(=O)N4CCCC4C(N)=O)cn3)CC2C)cc1 (stereo not drawn)
result: 3.20

query: Also COc1cc(C2CC(=O)NC(SCC(=O)Nc3ccc(Br)cc3)=C2C#N)ccc1O (stereo not drawn) , if possible.
result: 3.99

query: Can you handle CC1CN(c2ccc(C(=O)N3CCCC3C(N)=O)cn2)CCC1C(=O)COc1cccc2ccccc12 (stereo not drawn) next?
result: 3.20

query: Another compound to check: CC(C)Cc1ccc(C(C)C(=O)N2CCC(CCCC3CCN(c4ccc(C(=O)NC(C(N)=O)C(C)O)cn4)CC3)CC2)cc1 (stereo not drawn)
result: 2.90

query: Proceed to CC(O)C(NC(=O)c1ccc(N2CCC(CCCC3CCN(C(=O)Cc4ccc(-c5ccccc5)cc4)CC3)CC2)nc1)C(N)=O (stereo not drawn)
result: 2.30

query: Next entry: CC(O)C(NC(=O)c1ccc(N2CCC(CCCC3CCN(C(=O)CCC(=O)c4ccccc4)CC3)CC2)nc1)C(N)=O (stereo not drawn)
result: 2.70

query: Would you kindly repeat that for Cc1cc(C)cc(CC(=O)N2CCC(CCCC3CCN(c4ccc(C(=O)NC(C(N)=O)C(C)O)cn4)CC3)CC2)c1 (stereo not drawn) ?
result: 4.25
